Parameter STK11 functional score: see the listing below.
B1: library; numbered along this chain (parent)
chain: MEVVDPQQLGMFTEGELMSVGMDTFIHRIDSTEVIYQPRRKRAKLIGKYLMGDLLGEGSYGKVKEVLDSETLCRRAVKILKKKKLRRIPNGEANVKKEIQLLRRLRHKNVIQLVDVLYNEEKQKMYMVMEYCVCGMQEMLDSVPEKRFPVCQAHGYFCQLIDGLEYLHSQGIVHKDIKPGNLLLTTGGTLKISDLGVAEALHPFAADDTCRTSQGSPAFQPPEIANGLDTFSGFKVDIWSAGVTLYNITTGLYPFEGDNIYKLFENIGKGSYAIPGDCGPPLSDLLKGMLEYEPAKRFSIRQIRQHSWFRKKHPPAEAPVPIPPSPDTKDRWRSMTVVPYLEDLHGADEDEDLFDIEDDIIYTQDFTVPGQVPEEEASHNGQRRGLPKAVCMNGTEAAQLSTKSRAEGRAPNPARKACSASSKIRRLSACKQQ

Variants of: B1
Assay Overview: STK11 functional score (HeLa growth suppression), rescaled enrichment; synonymous median = 1, nonsense median = 0 (normalised score)
Reported Conditions: with HeLa; variant type: missense

Variant Spec: V34C
STK11 functional score: 0.884
--
Variant Spec: P203A
STK11 functional score: 0.904
--
Variant Spec: L9M
STK11 functional score: 1.01
--
Variant Spec: K97N
STK11 functional score: 1.21
--
Variant Spec: H345V
STK11 functional score: 1.22
--
Variant Spec: G188W
STK11 functional score: 0.946
--
Variant Spec: E374L
STK11 functional score: 1.2
--
Variant Spec: E223I
STK11 functional score: 0.17
--
Variant Spec: C134V
STK11 functional score: 0.604
